# Target Or System: Ecm22 (UniProt Q05958)
# Sequence: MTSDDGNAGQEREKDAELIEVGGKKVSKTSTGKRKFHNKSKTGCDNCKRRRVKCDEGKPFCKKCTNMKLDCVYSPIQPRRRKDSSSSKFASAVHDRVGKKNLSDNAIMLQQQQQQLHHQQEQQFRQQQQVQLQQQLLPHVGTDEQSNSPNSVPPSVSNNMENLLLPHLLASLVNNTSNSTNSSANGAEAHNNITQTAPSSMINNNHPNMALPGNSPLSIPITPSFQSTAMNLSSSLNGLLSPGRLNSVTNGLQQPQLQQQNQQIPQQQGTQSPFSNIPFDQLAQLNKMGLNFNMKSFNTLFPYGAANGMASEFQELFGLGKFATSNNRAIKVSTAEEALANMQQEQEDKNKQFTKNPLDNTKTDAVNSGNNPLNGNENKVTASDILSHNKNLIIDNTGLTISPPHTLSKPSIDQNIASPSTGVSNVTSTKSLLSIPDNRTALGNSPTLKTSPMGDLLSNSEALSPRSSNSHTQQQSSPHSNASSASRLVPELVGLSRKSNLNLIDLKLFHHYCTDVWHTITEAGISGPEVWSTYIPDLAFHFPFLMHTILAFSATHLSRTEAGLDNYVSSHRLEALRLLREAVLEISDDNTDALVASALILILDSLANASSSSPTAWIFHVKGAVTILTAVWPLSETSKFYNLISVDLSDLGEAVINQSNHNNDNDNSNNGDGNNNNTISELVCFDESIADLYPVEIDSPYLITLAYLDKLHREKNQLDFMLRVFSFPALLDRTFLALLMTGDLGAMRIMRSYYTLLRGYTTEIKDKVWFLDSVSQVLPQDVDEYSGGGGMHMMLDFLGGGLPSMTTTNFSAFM
# Test Protocol: PBM E-score (8-mer binding enrichment) (E-score (-0.5 to 0.5)); higher = stronger / more preferred TF binding
# Stated Conditions: protein concentration: 200 nM; construct: GST-full length
The full ranking holds about 33,000 sequences; the median of “E-score (-0.5 to 0.5)” is about -0.041, and the highest 2% start at about 0.37. What follows is part of a selection rich in the highest values, with near analogues and random picks from the rest.
Response field class: enum, chosen by comparing PBM E-score against 0 (below 0.008), 1 (0.008 to below 0.1), 2 (0.1 or more)

A selection of reference data follows.
INSERT INTO measurements (entry_sequence, target_or_system, assigned_class) VALUES
  ('CCATCGTC', 'Ecm22 (UniProt Q05958)', 0),
  ('AAGGAACG', 'Ecm22 (UniProt Q05958)', 2),
  ('GAAAAAGC', 'Ecm22 (UniProt Q05958)', 0);

Please classify: TAACGAAA 2

Please classify: AACGATCC 2

Please classify: ATGGAACC 0

====

Item-by-item account of PBM E-score
# Target Or System: Ecm22 (UniProt Q05958)
# Sequence: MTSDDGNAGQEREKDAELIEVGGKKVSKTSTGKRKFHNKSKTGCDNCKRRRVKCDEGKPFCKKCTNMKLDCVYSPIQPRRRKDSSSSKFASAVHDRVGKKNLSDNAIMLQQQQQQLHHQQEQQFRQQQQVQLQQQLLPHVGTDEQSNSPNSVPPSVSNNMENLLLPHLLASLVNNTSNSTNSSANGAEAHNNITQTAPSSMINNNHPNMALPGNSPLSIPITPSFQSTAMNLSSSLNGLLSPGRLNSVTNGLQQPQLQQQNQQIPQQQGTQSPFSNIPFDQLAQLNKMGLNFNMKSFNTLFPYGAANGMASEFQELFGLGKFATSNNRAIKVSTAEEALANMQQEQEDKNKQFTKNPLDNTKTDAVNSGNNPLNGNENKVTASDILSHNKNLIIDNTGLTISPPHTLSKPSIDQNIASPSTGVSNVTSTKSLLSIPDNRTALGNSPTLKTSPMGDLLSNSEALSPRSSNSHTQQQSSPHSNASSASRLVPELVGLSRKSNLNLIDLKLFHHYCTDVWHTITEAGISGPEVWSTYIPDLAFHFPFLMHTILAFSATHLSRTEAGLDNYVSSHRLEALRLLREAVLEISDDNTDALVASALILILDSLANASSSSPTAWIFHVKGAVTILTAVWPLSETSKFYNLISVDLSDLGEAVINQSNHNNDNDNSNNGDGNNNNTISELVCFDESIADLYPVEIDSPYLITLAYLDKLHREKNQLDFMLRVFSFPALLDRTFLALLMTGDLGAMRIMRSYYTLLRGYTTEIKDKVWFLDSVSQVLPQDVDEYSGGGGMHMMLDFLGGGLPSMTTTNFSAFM
# Test Protocol: PBM E-score (8-mer binding enrichment) (E-score (-0.5 to 0.5)); higher = stronger / more preferred TF binding
# Stated Conditions: protein concentration: 200 nM; construct: GST-full length
Whole data set: some 33,000 sequences, median “E-score (-0.5 to 0.5)” near -0.041, cut for the highest 2% near 0.37. Only a selection was taken, and the highest values are over-represented in it overall.
Reply with the value as a number alone.

INSERT INTO results (entry_sequence, target_or_system, reported_metric, meas_value) VALUES
  ('GCCCGTCC', 'Ecm22 (UniProt Q05958)', 'PBM E-score', -0.279),
  ('AATGCAGC', 'Ecm22 (UniProt Q05958)', 'PBM E-score', -0.147);

Record request: PBM E-score value, item AGCCTGCG -0.17

Record request: PBM E-score value, item ATACGAGG 0.488

Record request: PBM E-score value, item CATACGAA 0.451

Record request: PBM E-score value, item ACTACGAA 0.25

Record request: PBM E-score value, item CCTTGGCG -0.159

Record request: PBM E-score value, item AGCGAGGA 0.265

Record request: PBM E-score value, item AAGCGAAT 0.277

Record request: PBM E-score value, item ACCCGTAG -0.142

Record request: PBM E-score value, item GCCCGTAA 0.221

Record request: PBM E-score value, item ACCCGTAC 0.374

Record request: PBM E-score value, item CCCTCCAG -0.206

Record request: PBM E-score value, item CATACGTA 0.288

Record request: PBM E-score value, item AAACGCTT 0.00074

Record request: PBM E-score value, item TGTTCTAA -0.023

Record request: PBM E-score value, item TACGAGGA 0.466

Record request: PBM E-score value, item ACGGTTTA 0.0698

Record request: PBM E-score value, item GAAGAGAC 0.0183

Record request: PBM E-score value, item ACCGAGGT 0.225

Record request: PBM E-score value, item TGGTACCA -0.0735

Record request: PBM E-score value, item ACCCGTAA 0.179

Record request: PBM E-score value, item CTCGTGGA -0.0176

Record request: PBM E-score value, item ACGTACCA 0.306

Record request: PBM E-score value, item TCTTACCA 0.061

Record request: PBM E-score value, item AGCCTGGC -0.142
